Species on record: Homo sapiens
Experiment: Ratio of IC50 for human CYP3A4 to IC50 for human 17,20-lyase
Catalogue of Ratio IC50 readings, one per entry.

# annotated cases, reported Ratio IC50 shown
CNC(=O)Nc1ccc2cc(C(O)(c3c[nH]cn3)C(C)C)ccc2c1 (racemic) ... < 28
CC(=O)Nc1ccc2cc(C(O)(c3c[nH]cn3)C(C)C)ccc2c1 (racemic) ... < 26
CC(C)[C@](O)(c1ccc2c3c(ccc2c1)C(=O)N(C)C3)c1c[nH]cn1 ... > 1000

Consider the record given below.
Need Ratio IC50, item `COc1ccc2cc([C@](O)(c3c[nH]cn3)C(C)C)ccc2c1`
< 36
